Test system: OVCAR-3 ovarian
Assay Info: NCI-60 one-dose screen, 48 h
Condition Label: 10 µM unless noted
About 83,000 compounds went through this panel and 20% of them were active in at least one assay; those are over-represented in the sample as a whole. Active and inactive are the calls of the source. How the source made its calls: active means growth percent below 10; inactive means the rest.
// one of active, inactive, no free text

Molecule	Assigned Category
O=C(Nc1cccc2[nH]c(C(F)(F)F)nc12)c1ccc(Br)cc1F	inactive
CCCCCn1cnc2c(=S)nc[nH]c21	inactive
COc1ccc(CCN2CCCn3c2nc2ccccc2c3=O)cc1	active
CCCCCCCCSC1=CC(=O)C(OC)=C(OC)C1=O	active
Cc1nn(-c2ccccc2)c2nc(C)n(-c3ccc(Br)cc3)c(=O)c12	active

# outcome recorded in this test, key = c1ccc2sc(SCCCn3ccnc3)nc2c1
inactive

Now consider O=C(Nc1nc(-c2ccccc2)cc(-c2ccc(Cl)cc2)n1)c1ccncc1 and answer again.
inactive

Now consider CCCCCC(=O)N(CCCC)CCCC and answer again.
inactive

Now consider COC(=S)SCN(CSC(=S)OC)c1ccc(Cl)cc1 and answer again.
inactive

Now consider Nc1cc2ccncc2c2ccccc12 and answer again.
inactive

Now consider COc1cc(C2CC(=O)c3c(C)nn(-c4nc5ccccc5[nH]4)c3C2)cc(OC)c1OC (centres undefined) and answer again.
inactive
